Test system: ATP;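 also: ATP exposure 15 min at 22 °C before imaging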
Experiment: switch fluorescence ratio, 500 uM ATP over buffer (Cy3 cluster intensity, sum of 5 cycles each) (fold (ratio)); higher = stronger signal-on switching upon ATP binding; sequences stand for … in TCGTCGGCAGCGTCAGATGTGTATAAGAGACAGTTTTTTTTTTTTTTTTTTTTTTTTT…TC
Details: aptamer strand: ATP DNA aptamer (quencher-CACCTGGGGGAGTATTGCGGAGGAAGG + anchor), 100 nM annealed; ATP concentration: 500 uM
Measurement Label: switch fluorescence ratio

Recorded switch fluorescence ratio, per entry:
{"Input Sequence": "TTAGGGATCT", "Target Entity": "ATP", "switch fluorescence ratio": 0.99}
{"Input Sequence": "ATGGCTTAGC", "Target Entity": "ATP", "switch fluorescence ratio": 0.983}
{"Input Sequence": "TCGTAGGAGC", "Target Entity": "ATP", "switch fluorescence ratio": 1.03}

# input Given the entry CCTTTGTGAT , report its measured switch fluorescence ratio.
# output 1.5

# input Given the entry AAGCGGTAGG , report its measured switch fluorescence ratio.
# output 1.03

# input Given the entry ATGTAGCTGG , report its measured switch fluorescence ratio.
# output 1.07

# input Given the entry GGATTGGTGG , report its measured switch fluorescence ratio.
# output 1.01

# input Given the entry CTAACATGTG , report its measured switch fluorescence ratio.
# output 0.998

# input Given the entry GTGATATGGG , report its measured switch fluorescence ratio.
# output 1.02

# input Given the entry TTTGAATTAT , report its measured switch fluorescence ratio.
# output 0.975

# input Given the entry AAAGTTTGTT , report its measured switch fluorescence ratio.
# output 1.02
